# TEST_METHOD_NOTES: Pharmacokinetics in rats, plasma and brain by LC-MS/MS
# Format: in vivo, Sprague Dawley rats
# ASSAY_CONTEXT: male, Sprague Dawley, in vivo; plasma, single oral 50 mg/kg in sesame oil, rat
PROPERTY_NAME: AUC(0-t) (µg·h/mL)
Give the value, in units of µg·h/mL, as a plain number.

Look up AUC(0-t) for this molecule: CCCCCC1=C(NCC)C(=O)C(CC=C(C)CCC=C(C)C)=C(O)C1=O 327

---

# ASSAYED_SYSTEM: CYP2B6 (Homo sapiens, UniProt P20813)
# Sequence (P20813 1-491): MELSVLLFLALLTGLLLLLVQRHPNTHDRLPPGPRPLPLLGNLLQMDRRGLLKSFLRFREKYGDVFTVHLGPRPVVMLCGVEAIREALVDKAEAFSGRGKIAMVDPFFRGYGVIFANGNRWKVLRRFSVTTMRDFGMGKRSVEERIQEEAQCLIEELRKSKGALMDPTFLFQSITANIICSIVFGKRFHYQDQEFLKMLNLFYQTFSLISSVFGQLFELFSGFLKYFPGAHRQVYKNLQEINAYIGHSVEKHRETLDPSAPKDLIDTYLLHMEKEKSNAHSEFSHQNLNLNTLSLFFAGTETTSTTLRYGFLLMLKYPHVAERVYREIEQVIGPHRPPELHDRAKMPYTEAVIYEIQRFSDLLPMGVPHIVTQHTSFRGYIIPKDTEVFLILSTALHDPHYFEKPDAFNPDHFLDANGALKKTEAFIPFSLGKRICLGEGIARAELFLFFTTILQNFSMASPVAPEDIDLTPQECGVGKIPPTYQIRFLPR
pIC50: −log10 of the molar value.
PROPERTY_NAME: pIC50

Look up pIC50 for this compound: CCCCCC1=C(NCC)C(=O)C(CC=C(C)CCC=C(C)C)=C(O)C1=O [VCE-003.2] < 4.60
